Data provenance: patent US11634443B2

# assayProtocol: Stability and formation of treprostinil in rat liver microsomes
# protocolConditions: male, Sprague-Dawley, pH 7.4
metricName: Half-Life (min)
Kindly answer with a numeric value in min, unit omitted.

-- ask What Half-Life value was documented for this compound, C[C@]12CC[C@H]3[C@@H](CCC4=CC(=O)CC[C@@]43C)[C@@H]1CC[C@@H]2O ?
-- reply 1.71

* * *

# assayProtocol: Stability and formation of treprostinil in human liver microsomes
# protocolConditions: both, pH 7.4
metricName: Half-Life (min)
Kindly answer with a numeric value in min, unit omitted.

-- ask What Half-Life value was documented for this compound, C[C@]12CC[C@H]3[C@@H](CCC4=CC(=O)CC[C@@]43C)[C@@H]1CC[C@@H]2O ?
-- reply 29.2

* * *

# assayProtocol: Stability and formation of treprostinil in dog cryopreserved hepatocytes
# protocolConditions: male, Beagle, dog, hepatocytes, pH 7.4
metricName: half-life at 1 μM (min)
Kindly answer with a numeric value in min, unit omitted.

-- ask What half-life at 1 μM value was documented for this compound, C[C@]12CC[C@H]3[C@@H](CCC4=CC(=O)CC[C@@]43C)[C@@H]1CC[C@@H]2O ?
-- reply 6.5

* * *

# assayProtocol: Stability and formation of treprostinil in dog liver microsomes
# protocolConditions: male, Beagle, pH 7.4
metricName: Half-Life (min)
Kindly answer with a numeric value in min, unit omitted.

-- ask What Half-Life value was documented for this compound, C[C@]12CC[C@H]3[C@@H](CCC4=CC(=O)CC[C@@]43C)[C@@H]1CC[C@@H]2O ?
-- reply 37.7

* * *

# assayProtocol: Stability and formation of treprostinil in rat liver microsomes
# protocolConditions: male, Sprague-Dawley, pH 7.4
metricName: microsomal CLint (µL/min/mg)
Kindly answer with a numeric value in µL/min/mg, unit omitted.

-- ask What microsomal CLint value was documented for this molecule, C[C@]12CC[C@H]3[C@@H](CCC4=CC(=O)CC[C@@]43C)[C@@H]1CC[C@@H]2O [Testosterone, testosterone] ?
-- reply 809

* * *

# assayProtocol: Stability and formation of treprostinil in dog liver microsomes
# protocolConditions: male, Beagle, pH 7.4
metricName: microsomal CLint
I'd appreciate it if you included the unit after the number.

-- ask What microsomal CLint value was documented for this compound, C[C@]12CC[C@H]3[C@@H](CCC4=CC(=O)CC[C@@]43C)[C@@H]1CC[C@@H]2O [Testosterone, testosterone] ?
-- reply 36.8 µL/min/mg

* * *

# testTarget: prostaglandin D2 (PGD2) receptor 1 (DP1) (Homo sapiens)
# Construct: expressed in transfected cells; host or cells: HEK293T
# Sequence (Q13258 whole entry): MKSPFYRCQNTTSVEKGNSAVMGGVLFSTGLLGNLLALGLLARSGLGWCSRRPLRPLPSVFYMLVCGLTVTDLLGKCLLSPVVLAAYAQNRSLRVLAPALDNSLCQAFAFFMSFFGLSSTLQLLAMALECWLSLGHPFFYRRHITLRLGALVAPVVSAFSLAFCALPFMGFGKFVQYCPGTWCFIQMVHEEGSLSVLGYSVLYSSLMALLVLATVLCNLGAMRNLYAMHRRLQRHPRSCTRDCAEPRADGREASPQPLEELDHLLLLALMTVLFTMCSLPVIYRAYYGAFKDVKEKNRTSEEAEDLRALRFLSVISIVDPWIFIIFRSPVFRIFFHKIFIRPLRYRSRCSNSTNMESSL
# assayProtocol: DP1 receptor cAMP assay (agonist mode)
# Format: cell-based
# protocolConditions: Table 24; relative to treprostinil EC50 values; * partial agonists or ambiguous dose-response curves; image character = too high to realistically calculate
metricName: Activity, DP1 Relative to Tre (x)
Kindly answer with a numeric value in x, unit omitted.

1) CCCCC[C@H](O)CC[C@@H]1[C@H]2Cc3cccc(OCC(=O)OCC)c3C[C@H]2C[C@H]1O [Treprostinil ethyl ester] : 18
2) CCCCC[C@@H](CC[C@@H]1[C@H]2Cc3cccc(OCC(=O)O)c3C[C@H]2C[C@H]1O)OC(=O)CC [Prodrug LV, treprostinil side chain propionic ester] : 94
3) CCCCC[C@@H](CC[C@@H]1[C@H]2Cc3cccc(OCC(=O)O)c3C[C@H]2C[C@H]1O)OP(=O)(O)O [Prodrug VI, treprostinil side chain phosphate] : 2

-- ask What Activity, DP1 Relative to Tre value was documented for this molecule, CCCCC[C@@H](CC[C@@H]1[C@H]2Cc3cccc(OCC(=O)O)c3C[C@H]2C[C@H]1O)OC(C)=O [Prodrug XLIII] ?
-- reply 272
